// data source = paper PMC2751792

tgt: recombinant human HDAC5 (Homo sapiens, UniProt Q9UQL6)
Sequence (Q9UQL6 whole entry, canonical isoform): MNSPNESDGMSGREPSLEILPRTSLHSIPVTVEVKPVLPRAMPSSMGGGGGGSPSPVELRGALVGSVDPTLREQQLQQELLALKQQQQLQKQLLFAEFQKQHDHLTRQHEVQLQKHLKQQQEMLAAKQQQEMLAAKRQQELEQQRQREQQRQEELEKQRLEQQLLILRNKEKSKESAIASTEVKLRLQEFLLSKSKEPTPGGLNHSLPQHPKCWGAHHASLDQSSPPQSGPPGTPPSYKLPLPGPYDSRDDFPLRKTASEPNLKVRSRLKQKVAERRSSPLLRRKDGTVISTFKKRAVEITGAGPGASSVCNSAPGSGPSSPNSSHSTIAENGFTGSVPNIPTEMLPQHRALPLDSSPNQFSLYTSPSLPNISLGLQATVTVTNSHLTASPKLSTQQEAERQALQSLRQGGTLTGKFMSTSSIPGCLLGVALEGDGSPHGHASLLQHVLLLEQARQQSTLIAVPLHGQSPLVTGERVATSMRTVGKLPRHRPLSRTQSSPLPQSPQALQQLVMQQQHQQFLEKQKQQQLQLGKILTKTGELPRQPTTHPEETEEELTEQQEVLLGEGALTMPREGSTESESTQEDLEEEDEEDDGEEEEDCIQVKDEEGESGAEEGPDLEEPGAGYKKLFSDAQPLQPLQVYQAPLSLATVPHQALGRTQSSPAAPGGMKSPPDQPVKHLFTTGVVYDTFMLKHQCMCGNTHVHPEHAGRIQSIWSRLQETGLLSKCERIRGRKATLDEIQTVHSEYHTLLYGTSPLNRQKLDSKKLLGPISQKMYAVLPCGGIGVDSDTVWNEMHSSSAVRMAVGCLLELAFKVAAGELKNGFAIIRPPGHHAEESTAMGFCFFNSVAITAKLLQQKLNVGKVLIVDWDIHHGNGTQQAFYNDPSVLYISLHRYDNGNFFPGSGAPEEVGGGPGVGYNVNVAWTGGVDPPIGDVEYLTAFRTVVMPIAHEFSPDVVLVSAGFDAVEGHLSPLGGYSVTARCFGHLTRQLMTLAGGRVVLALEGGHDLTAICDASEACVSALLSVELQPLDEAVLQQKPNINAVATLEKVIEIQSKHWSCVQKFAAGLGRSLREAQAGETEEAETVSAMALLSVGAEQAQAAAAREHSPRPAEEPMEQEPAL
assay.method.text: Recombinant HDAC isoform inhibition, HDAC5
Square brackets hold non-standard residues; d marks the D form. Peptide text beside a SMILES is read from it. * marks the point of attachment. Asu = N[C@@H](CCCCCC(=O)O)C(=O)O; β3hL = CC(C)C[C@H](N)CC(=O)O; NHOH = ON*
test.readout: IC50 (nM)

CCC(=O)CCCCC[C@@H]1NC(=O)[C@H](C)NC(=O)C[C@H](CC(C)C)NC(=O)[C@H](Cc2c[nH]c3ccccc23)NC1=O [compound 3]	70

1 = CCC(=O)CCCCC[C@@H]1NC(=O)[C@H](C)N(C)C(=O)C[C@H](CC(C)C)NC(=O)[C@H](Cc2c[nH]c3ccccc23)NC1=O [3h]
2 = CC(C)C[C@H]1CC(=O)N[C@@H](C)C(=O)N[C@@H](CCCCCC(=O)O)C(=O)N[C@@H](Cc2c[nH]c3ccccc23)C(=O)N1 [3b] (cyclo([Asu]W[β3hL]A))
QUERY: Which gives the smaller IC50 number: 1 or 2 ? Kindly state the label of the option you pick.
RESULT: 1

a = CCC(=O)CCCCC[C@@H]1NC(=O)[C@@H]2CCCN2C(=O)C[C@H](CC(C)C)NC(=O)[C@H](Cc2c[nH]c3ccccc23)NC1=O [compound 4]
b = CC(C)C[C@H]1CC(=O)N[C@@H](C)C(=O)N[C@@H](CCCCCC(=O)NO)C(=O)N[C@@H](Cc2c[nH]c3ccccc23)C(=O)N1 [3a] (cyclo([Asu](NHOH)W[β3hL]A))
QUERY: Which gives the smaller IC50 number: a or b ? Kindly state the label of the option you pick.
RESULT: b
